What IC50 was measured for each of the following?
Target: Corticotropin-releasing factor receptor 2/Corticotropin-releasing factor-binding protein (Homo sapiens, UniProt P24387+Q13324)
Sequence (Q13324 whole entry): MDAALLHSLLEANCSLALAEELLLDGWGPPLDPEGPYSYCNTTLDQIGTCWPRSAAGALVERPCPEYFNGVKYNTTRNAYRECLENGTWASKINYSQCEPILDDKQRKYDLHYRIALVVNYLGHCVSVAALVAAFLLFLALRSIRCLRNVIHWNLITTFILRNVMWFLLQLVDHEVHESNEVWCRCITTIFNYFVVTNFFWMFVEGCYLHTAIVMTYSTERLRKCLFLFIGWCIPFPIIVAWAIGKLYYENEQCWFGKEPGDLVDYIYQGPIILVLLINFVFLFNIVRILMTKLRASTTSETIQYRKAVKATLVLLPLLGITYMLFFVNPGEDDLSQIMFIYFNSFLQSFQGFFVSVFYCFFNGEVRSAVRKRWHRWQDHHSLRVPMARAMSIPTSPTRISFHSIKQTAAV
Sequence (P24387 whole entry): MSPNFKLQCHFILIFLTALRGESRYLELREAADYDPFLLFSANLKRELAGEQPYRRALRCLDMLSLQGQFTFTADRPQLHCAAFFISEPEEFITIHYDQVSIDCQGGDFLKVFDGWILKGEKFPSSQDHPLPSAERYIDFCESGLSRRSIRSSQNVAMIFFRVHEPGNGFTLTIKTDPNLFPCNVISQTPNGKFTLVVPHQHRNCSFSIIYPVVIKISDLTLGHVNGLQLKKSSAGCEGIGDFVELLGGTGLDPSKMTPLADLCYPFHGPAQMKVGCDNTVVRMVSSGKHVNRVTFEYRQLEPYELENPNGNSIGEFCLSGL
Assay: Dose Response confirmation of uHTS hits for small molecule antagonists of the CRF-binding protein and CRF-R2 receptor complex.
Format: functional
Conditions: read-out: IC50_Mean
Activity calls are given as the source filed them. Cut-off read from the data, not from the text of the source: actives have a measured IC50 and inactives only a lower limit.

Qu. Need IC50, item COc1ccc(C(=O)NC(Oc2ccccc2)C(Cl)(Cl)Cl)cc1 (stereo not drawn)
Ans. 5.81 µM (active)

Qu. Need IC50, item `Nc1nc(O)cc(Nc2ccccc2Cl)n1`
Ans. > 47.1 µM (inactive)

Qu. Need IC50, item `O=C(Nc1nc2c(F)cc(F)cc2s1)c1ccc([N+](=O)[O-])o1`
Ans. 4.95 µM (active)

Qu. Need IC50, item `COc1cccc(Oc2ccc(OC)cc2C(=O)O)c1`
Ans. > 47.1 µM (inactive)

Qu. Need IC50, item CN(C(=O)CN1C(=O)/C(=C/c2ccccc2Cl)SC1=S)C1CCS(=O)(=O)C1 (stereo not drawn)
Ans. > 47.1 µM (inactive)

Qu. Need IC50, item `O=C(O)c1cnc(-c2ccccc2)nc1Sc1ccc(Cl)cc1`
Ans. 16.8 µM (active)

Qu. Need IC50, item `O=C(Nc1ccc(O)cc1)c1cccc(Oc2ccc([N+](=O)[O-])cc2)c1`
Ans. 25.9 µM (active)

Qu. Need IC50, item `CCOC(=O)c1cc(NC(=O)Nc2cc(C)ccn2)c(C)nc1C`
Ans. > 47.1 µM (inactive)

Qu. Need IC50, item `OCCOCCN1CCN(C(S)=Nc2ccccc2)CC1`
Ans. > 47.1 µM (inactive)

Qu. Need IC50, item `O=C(NCCc1csc(-c2ccccc2)n1)c1c(F)cccc1Cl`
Ans. > 47.1 µM (inactive)

Qu. Need IC50, item `Cc1cc(C)n2nc(CC(=O)NNC(=O)c3ccccc3Cl)nc2n1`
Ans. > 47.1 µM (inactive)

Qu. Need IC50, item CC(=O)C1=C(O)C(=O)N(Cc2ccccc2)C1c1ccc(F)cc1 (stereo not drawn)
Ans. > 47.1 µM (inactive)

Qu. Need IC50, item `SC1=NCN(CCc2ccccc2)CN1Cc1ccccc1`
Ans. > 47.1 µM (inactive)
